Target: recombinant human DPPI (Cathepsin C) (Homo sapiens (Human))
Assay: Inhibition of human DPPI (Cathepsin C)
Settings: substrate Gly-Arg-AMC
Reported IC50 values for the following compounds.
recorded metric: IC50

                                   compound                              assay_target      val
0  N#C[C@H](Cc1ccc(-c2ccc(=O)n(CC(F)F)c2)cc1F)NC(=O)[C@H]1N[C@@H]2CC[C@H]1C2 [Example 343]  recombinant human DPPI (Cathepsin C) (Homo sapiens (Human))   4.5 nM
1  CS(=O)(=O)c1cc(-c2ccc(C[C@@H](C#N)NC(=O)[C@H]3N[C@@H]4CC[C@H]3C4)c(F)c2)ccc1C#N [Example 14]  recombinant human DPPI (Cathepsin C) (Homo sapiens (Human))     2 nM
2  COCCN1CCN(c2ccc(C[C@@H](C#N)NC(=O)[C@H]3N[C@@H]4CC[C@H]3C4)c(F)c2)CC1 [Example 182]  recombinant human DPPI (Cathepsin C) (Homo sapiens (Human))   8.8 nM
3  CS(=O)(=O)c1ccc(-c2ccc(C[C@@H](C#N)NC(=O)[C@H]3N[C@@H]4CC[C@H]3C4)c(F)c2)cc1F [Example 12]  recombinant human DPPI (Cathepsin C) (Homo sapiens (Human))   1.9 nM
4  N#C[C@H](Cc1ccc(N2CC3CCN(C4CCOC4)C3C2)cc1F)NC(=O)[C@H]1N[C@@H]2CC[C@H]1C2 (stereo partly shown) [Example 348]  recombinant human DPPI (Cathepsin C) (Homo sapiens (Human))  17.6 nM
5  N#C[C@H](Cc1ccc(-n2cc(CCN3CCOCC3)nn2)cc1F)NC(=O)[C@H]1N[C@@H]2CC[C@H]1C2 [Example 99]  recombinant human DPPI (Cathepsin C) (Homo sapiens (Human))  21.1 nM
6  N#C[C@H](Cc1ccc(-c2cnn(CC3CCCCO3)c2)cc1F)NC(=O)[C@H]1N[C@@H]2CC[C@H]1C2 (stereo partly shown) [Example 28]  recombinant human DPPI (Cathepsin C) (Homo sapiens (Human))   4.1 nM

###

IC50 values for the molecules below.
Biological target: recombinant human DPPI (Cathepsin C) (Homo sapiens (Human), UniProt P53634)
Sequence (P53634 231-394): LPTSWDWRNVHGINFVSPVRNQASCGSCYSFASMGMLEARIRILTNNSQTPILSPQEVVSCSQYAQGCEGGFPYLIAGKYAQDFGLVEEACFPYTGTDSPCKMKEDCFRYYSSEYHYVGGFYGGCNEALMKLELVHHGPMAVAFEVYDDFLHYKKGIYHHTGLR
Sequence (P53634 395-463): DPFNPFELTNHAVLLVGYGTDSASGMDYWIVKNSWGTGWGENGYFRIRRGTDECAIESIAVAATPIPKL
Sequence (P53634 25-134): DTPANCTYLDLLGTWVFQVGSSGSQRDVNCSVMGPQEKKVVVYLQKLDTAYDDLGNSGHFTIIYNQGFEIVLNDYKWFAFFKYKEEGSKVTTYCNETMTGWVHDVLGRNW
Assay: Inhibition of human DPPI (Cathepsin C)
Conditions: substrate Gly-Arg-AMC
recorded metric: IC50 (nM)

In [3]: df
Out[3]:
                                   molecule   val
0  N#CC(Cc1ccc(-c2cnc(Cl)cn2)cc1F)NC(=O)[C@H]1N[C@@H]2CC[C@H]1C2 (stereo partly shown) [Example 102]  24.8
1  Cn1c(=O)c2cc(CC(C#N)NC(=O)[C@H]3N[C@@H]4CC[C@H]3C4)ccc2c2ccc(Cl)cc21 (stereo partly shown) [Example 305]   6.9
2  N#C[C@H](Cc1ccc(N2CCN(C3CCOCC3)CC2)cc1F)NC(=O)[C@H]1N[C@@H]2CC[C@H]1C2 [Example 336]  24.5
3  N#CC(Cc1ccc(-c2ccc3c(c2)CNC3=O)cc1F)NC(=O)[C@H]1N[C@@H]2CC[C@H]1C2 (stereo partly shown) [Example 41]   5.3

###

Molecular target: recombinant human Cathepsin K (Homo sapiens (Human))
Sequence (P43235 115-329): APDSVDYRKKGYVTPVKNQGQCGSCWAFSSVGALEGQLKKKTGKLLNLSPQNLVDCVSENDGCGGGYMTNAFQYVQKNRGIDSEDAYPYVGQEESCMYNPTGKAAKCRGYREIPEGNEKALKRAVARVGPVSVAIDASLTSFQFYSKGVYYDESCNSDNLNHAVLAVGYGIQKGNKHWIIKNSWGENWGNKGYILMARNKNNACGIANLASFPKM
Assay: Inhibition of human Cathepsin K
Settings: substrate Z-Gly-Pro-Arg-AMC
pIC50: −log10 of the molar value.
recorded metric: pIC50

                                   compound  recorded_metric   val
0  N#C[C@H](Cc1ccc(C2=CC3COCCN3CC2)cc1F)NC(=O)[C@H]1N[C@@H]2CC[C@H]1C2 (stereo partly shown)            pIC50  5.74
1  COCCn1cc(-c2ccc(CC(C#N)NC(=O)[C@H]3N[C@@H]4CC[C@H]3C4)c(F)c2)cn1 (stereo partly shown)            pIC50  5.10
2  N#C[C@H](Cc1ccc(-c2ccc3c(c2)C(=O)NC3)cc1F)NC(=O)[C@H]1N[C@@H]2CC[C@H]1C2            pIC50  5.44
3  N#C[C@H](Cc1cc2c(=O)[nH]c3ccccc3c2cc1F)NC(=O)[C@H]1N[C@@H]2CC[C@H]1C2            pIC50  5.96

###

# In vitro stability in human liver microsome incubations t½ listing for each entry below
Assay: Determination of metabolic stability with human liver microsomes
Conditions: pooled human liver microsomes, 1 μM test compound, 37° C., NADPH
recorded metric: In vitro stability in human liver microsome incubations t½ (h)

>>> df
                                   molecule  measure_unit   val
0  N#C[C@H](Cc1ccc(N2CC3CCN(C4CCOC4)C3C2)cc1F)NC(=O)[C@H]1N[C@@H]2CC[C@H]1C2 (stereo partly drawn)             h  2.17
1  CN1C(=O)Cc2ccc(-c3ccc(CC(C#N)NC(=O)[C@H]4N[C@@H]5CC[C@H]4C5)c(F)c3)cc21 (stereo partly drawn)             h  2.17
2  N#C[C@H](Cc1ccc(N2CCCN3CCCC3C2)cc1F)NC(=O)[C@H]1N[C@@H]2CC[C@H]1C2 (stereo partly drawn)             h  2.17

###

Some compounds, each annotated with its measured half-life at 1 μM.
Assay: Determination of metabolic stability with human liver microsomes
Details: human, pooled human liver microsomes, pH 7.6
recorded metric: half-life at 1 μM

>>> print(df.to_string())
                                    compound        val
 0  CS(=O)(=O)c1cc(-c2ccc(C[C@@H](C#N)NC(=O)[C@H]3N[C@@H]4CC[C@H]3C4)c(F)c2)ccc1C#N  > 130 min
 1  CS(=O)(=O)N1CCN(c2ccc(C[C@@H](C#N)NC(=O)[C@H]3N[C@@H]4CC[C@H]3C4)c(F)c2)CC1  > 130 min
 2  N#C[C@H](Cc1ccc(-c2csc(C(=O)NC3CCOCC3)c2)cc1F)NC(=O)[C@H]1N[C@@H]2CC[C@H]1C2  > 130 min
 3  CS(=O)(=O)c1ccc(-c2ccc(C[C@@H](C#N)NC(=O)[C@H]3N[C@@H]4CC[C@H]3C4)c(F)c2)cc1  > 130 min
 4  N#C[C@H](Cc1ccc([C@@H]2CCN3CCOC[C@H]3C2)cc1F)NC(=O)[C@H]1N[C@@H]2CC[C@H]1C2  > 130 min
 5  N#CC(Cc1ccc(-c2ncc(Cl)cn2)cc1F)NC(=O)[C@H]1N[C@@H]2CC[C@H]1C2 (stereo partly shown)  > 130 min
 6  N#C[C@H](Cc1ccc(OCCN2CCNCC2)cc1F)NC(=O)[C@H]1N[C@@H]2CC[C@H]1C2  > 130 min
 7  CN1C(=O)Cc2ccc(-c3cc(F)c(C[C@@H](C#N)NC(=O)[C@H]4N[C@@H]5CC[C@H]4C5)cc3F)cc21     90 min
 8  CN1CCC2(C=C(c3ccc(C[C@@H](C#N)NC(=O)[C@H]4N[C@@H]5CC[C@H]4C5)c(F)c3)C2)CC1  > 130 min
 9  N#C[C@H](Cc1ccc(-n2cc(-c3ccc4[nH]ccc4c3)nn2)cc1F)NC(=O)[C@H]1N[C@@H]2CC[C@H]1C2     92 min
10  N#C[C@H](Cc1cc2c(=O)[nH]c3cc(F)ccc3c2cc1F)NC(=O)[C@H]1N[C@@H]2CC[C@H]1C2  > 130 min
11  N#C[C@H](Cc1ccc(-n2cc(CCN3CCOCC3)nn2)cc1F)NC(=O)[C@H]1N[C@@H]2CC[C@H]1C2  > 130 min
12  CC(=O)N1CCN(C(=O)c2cc(-c3ccc(C[C@@H](C#N)NC(=O)[C@H]4N[C@@H]5CC[C@H]4C5)c(F)c3)cs2)CC1  > 130 min
13  CN1C(=O)C(=O)c2ccc(-c3ccc(C[C@@H](C#N)NC(=O)[C@H]4N[C@@H]5CC[C@H]4C5)c(F)c3)cc21  > 130 min
14  N#CC(Cc1ccc2c(cnc3cc(F)ccc32)c1)NC(=O)[C@H]1N[C@@H]2CC[C@H]1C2 (stereo partly shown)     92 min
15  N#C[C@H](Cc1ccc(-c2csc(C(=O)N3CCOCC3)c2)cc1F)NC(=O)[C@H]1N[C@@H]2CC[C@H]1C2  > 130 min
16  N#C[C@H](Cc1ccc(-c2ccc(=O)n(CC(F)F)c2)cc1F)NC(=O)[C@H]1N[C@@H]2CC[C@H]1C2  > 130 min
17  N#C[C@H](Cc1ccc(N2CC3(CNC3)C2)cc1F)NC(=O)[C@H]1N[C@@H]2CC[C@H]1C2  > 130 min
18  N#C[C@H](Cc1ccc(-n2cc(COc3ccccc3)nn2)cc1F)NC(=O)[C@H]1N[C@@H]2CC[C@H]1C2     84 min
19  N#CC(Cc1ccc(-c2ccc(Cl)nn2)cc1F)NC(=O)[C@H]1N[C@@H]2CC[C@H]1C2 (stereo partly shown)  > 130 min
20  N#C[C@H](Cc1ccc(-c2cnn(-c3ccccc3)c2)cc1F)NC(=O)[C@H]1N[C@@H]2CC[C@H]1C2     83 min
21  N#CC(Cc1cc2c(=O)[nH]c3ccccc3c2cc1F)NC(=O)[C@H]1N[C@@H]2CC[C@H]1C2 (stereo partly shown)  > 130 min
22  N#CC(Cc1ccc(-c2ccc3c(c2)CCNC3=O)cc1F)NC(=O)[C@H]1N[C@@H]2CC[C@H]1C2 (stereo partly shown)  > 130 min
23  COCCn1cc(-c2ccc(C[C@@H](C#N)NC(=O)[C@H]3N[C@@H]4CC[C@H]3C4)c(F)c2)cn1  > 130 min
24  Cn1nc(C(F)(F)F)cc1-c1ccc(C[C@@H](C#N)NC(=O)[C@H]2N[C@@H]3CC[C@H]2C3)c(F)c1  > 130 min
25  CN(C)CCCN1C(=O)Cc2ccc(-c3ccc(C[C@@H](C#N)NC(=O)[C@H]4N[C@@H]5CC[C@H]4C5)c(F)c3)cc21  > 130 min
26  N#CC(Cc1ccc(-c2cccc(C(N)=O)c2)cc1F)NC(=O)[C@H]1N[C@@H]2CC[C@H]1C2 (stereo partly shown)  > 130 min
27  CCOCc1cn(-c2ccc(C[C@@H](C#N)NC(=O)[C@H]3N[C@@H]4CC[C@H]3C4)c(F)c2)nn1  > 130 min

Data origin, for the record: patent US8987249B2
